src = the supplement of paper PMC7877785

# MEASUREMENT DESCRIPTION: self-splicing fitness, log relative to wild type (ln ratio); higher = more splicing; Tetrahymena group I intron in knt gene, E. coli kanamycin selection, DiMSum; sequences stand for … in CUCUCU…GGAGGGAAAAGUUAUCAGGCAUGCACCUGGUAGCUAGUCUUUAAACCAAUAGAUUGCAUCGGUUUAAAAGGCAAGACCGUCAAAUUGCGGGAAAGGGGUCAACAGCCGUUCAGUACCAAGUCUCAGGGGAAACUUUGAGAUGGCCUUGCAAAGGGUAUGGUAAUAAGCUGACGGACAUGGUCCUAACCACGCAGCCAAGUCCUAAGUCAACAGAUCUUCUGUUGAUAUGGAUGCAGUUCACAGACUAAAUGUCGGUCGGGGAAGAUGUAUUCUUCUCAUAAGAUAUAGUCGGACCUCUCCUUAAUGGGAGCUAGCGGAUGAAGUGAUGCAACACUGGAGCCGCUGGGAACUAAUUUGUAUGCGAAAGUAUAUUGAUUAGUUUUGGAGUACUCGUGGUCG;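 further: selection with 25 µg/mL kanamycin versus none on LB agar overnight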
# TEST CONDITIONS: 37 °C
# reported self-splicing fitness (ln); entries follow
Give the value as a plain number.

These solved cases illustrate the format of a correct answer.
UUUGAGCAAUAUUACGUUUG	-2
CCGUAGCAAUAUUACGACGA	-0.689

We now examine a further sequence.
IN: Give the value of self-splicing fitness (ln) reported for the following: GGAUAGCAAUAUUACGAAGG
OUT: -2.02
